# maps each entry to its pEC50
# System: RSV A2 strain
# method-notes: In vitro CPE (CytoPathic Effect) inhibition effect evaluation test, RSV type A
# Assay type: cell-based
# assay-setup: human respiratory syncytial virus; inhibitory effect against RSV type A (RSV A2 strain), HEp-2 cells, CPE inhibition; read-out: EC50
pEC50: −log10 of the molar value.
measurement-type: pEC50

compound="COc1ccnc(N2CCC(Oc3ccc4c(c3)CCN4c3ncc(C(=O)NC4(C(=O)O)CCCCC4)c(C(F)(F)F)n3)CC2)c1 [Compound I-79]" measurement_type=pEC50 measured_result="7.00 to 8.00"
compound="O=C(NC1(C(=O)O)C2CC3CC(C2)CC1C3)c1cnc(-c2cn(C3CCC(F)(F)CC3)c3cc(OC4CCC(C(F)(F)F)CC4)ccc23)nc1C(F)(F)F (stereo not drawn) [Compound I-428]" measurement_type=pEC50 measured_result="> 8.00"
compound="Cn1ncc2c1CCC(Oc1ccc3c(c1)C1(CCOCC1)CN3c1ncc(C(=O)NC3(C(=O)O)C4CC5CC(C4)CC3C5)c(C(F)(F)F)n1)C2 (single isomer, unassigned) [Compound I-190]" measurement_type=pEC50 measured_result="> 8.00"
compound="O=C(NC1(C(=O)O)C2CC3CC(C2)CC1C3)c1cnc(-c2cn(C3CCC(F)(F)CC3)c3cc(O[C@H]4CCN(CC(F)(F)F)C4)ccc23)nc1C(F)(F)F (stereo partly drawn) [Compound I-375]" measurement_type=pEC50 measured_result="> 8.00"
compound="COc1ccc2c(c1)C1(CCOCC1)CN2c1ccc(C(=O)NC2(C(=O)O)C3CC4CC(C3)CC2C4)c(C(F)(F)F)n1 (stereo not drawn) [Compound I-121]" measurement_type=pEC50 measured_result="> 8.00"
compound="COCc1ccc(-c2ccc3c(c2)CCN3c2ncc(C(=O)NC3(C(=O)O)CCCCC3)c(C(F)(F)F)n2)cc1 [Compound I-9]" measurement_type=pEC50 measured_result="7.00 to 8.00"
compound="O=C(NC1(C(=O)O)C2CC3CC(C2)CC1C3)c1cnc(N2CC3(CCOCC3)c3cc(C4CCCC4)ccc32)nc1C(F)(F)F (stereo not drawn) [Compound I-129]" measurement_type=pEC50 measured_result="> 8.00"
compound="COCCCCOc1ccc2c(c1)CCN2c1ncc(C(=O)NC2(C(=O)O)CCCCC2)c(C(F)(F)F)n1 [Compound I-2]" measurement_type=pEC50 measured_result="7.00 to 8.00"
compound="CC(F)(F)c1nc(N2CC3(CCOCC3)c3cc(OC4CCN(CC(F)(F)F)CC4)ccc32)ncc1C(=O)NC1(C(=O)O)C2CC3CC(C2)CC1C3 (stereo not drawn) [Compound I-465]" measurement_type=pEC50 measured_result="> 8.00"
compound="Cn1ccnc1N1CCC(Oc2ccc3c(c2)CCN3c2ncc(C(=O)NC3(C(=O)O)CCCCC3)c(C(F)(F)F)n2)CC1 [Compound I-207]" measurement_type=pEC50 measured_result="7.00 to 8.00"
compound="O=C(NC1(C(=O)O)CCCCC1)c1cnc(N2CCc3cc(NC4CCN(c5ncccn5)CC4)ccc32)nc1C(F)(F)F [Compound I-67]" measurement_type=pEC50 measured_result="7.00 to 8.00"
compound="O=C(NC1(C(=O)O)C2CC3CC(C2)CC1C3)c1ccc(-c2cn(C3CCOCC3)c3cc(OC4CCN(c5ncccn5)CC4)ccc23)nc1C(F)(F)F (stereo not drawn) [Compound I-147]" measurement_type=pEC50 measured_result="> 8.00"
